Reference source for all entries: paper PMC9814838

Measured EC50 by item
Target: Nurr1 (Homo sapiens)
Construct: Nurr1 (uniprot entry: hNURR1–P43354, residues 360–598); expressed in transfected cells; host or cells: HEK293T
Sequence (P43354 360-598): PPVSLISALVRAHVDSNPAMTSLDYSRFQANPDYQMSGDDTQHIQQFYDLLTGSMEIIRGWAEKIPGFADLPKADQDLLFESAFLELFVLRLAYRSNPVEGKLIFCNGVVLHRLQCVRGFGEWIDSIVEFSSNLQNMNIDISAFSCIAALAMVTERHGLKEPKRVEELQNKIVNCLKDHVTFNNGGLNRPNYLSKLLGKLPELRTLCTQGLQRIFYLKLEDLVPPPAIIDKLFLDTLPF
Test: Gal4-Nurr1 hybrid reporter gene assay in HEK293T cells
Format: cell-based
Conditions: HEK293T; mean ± SD; n≥3
Answer with the value and then the unit.

compound	readout value
CCN(CC)Cc1cc(Nc2ccnc3cc(Cl)ccc23)ccc1O [AQ, amodiaquine]	36 µM
O=C(O)COC(=O)Cc1ccccc1Nc1c(Cl)cccc1Cl [aceclofenac]	2.5 µM
Cc1ccc(Cl)c(Nc2ccccc2C(=O)O)c1Cl [MFA, Meclofenamic acid]	4.7 µM

Kindly consider the entry below.
# input Please look at this compound and report its EC50: CCN(CC)CCCC(C)Nc1ccnc2cc(Cl)ccc12 (stereo not shown) [CQ, chloroquine]
# output 47 µM

====

Biological target: Nur77 (Homo sapiens)
Construct: Nur77 (uniprot entry: hNUR77–P22736, residues 358–598); expressed in transfected cells; host or cells: HEK293T
Sequence (P22736 358-598): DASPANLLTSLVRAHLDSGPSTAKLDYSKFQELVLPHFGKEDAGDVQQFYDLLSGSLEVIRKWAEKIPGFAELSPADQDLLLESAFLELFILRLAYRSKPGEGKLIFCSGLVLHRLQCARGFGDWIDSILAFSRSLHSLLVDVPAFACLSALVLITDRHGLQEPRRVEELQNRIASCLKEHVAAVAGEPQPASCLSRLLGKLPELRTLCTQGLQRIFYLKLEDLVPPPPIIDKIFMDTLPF
Test: Gal4-Nur77 hybrid reporter gene assay in HEK293T cells
Format: cell-based
Conditions: compared to 0.1% DMSO; mean ± SD
Short version: Nur77 min./max. activation at least 0.6 is 1 (yes), less is 0 (no).

Answered examples (4):
compound	assigned label
Cc1ccc(Cl)c(Nc2ccccc2C(=O)O)c1Cl [MFA, Meclofenamic acid]	1 (yes)
CN1C(C(=O)Nc2ccccn2)=C(O)c2sc(Cl)cc2S1(=O)=O [lornoxicam]	1 (yes)
COc1ccc(-c2noc(CC(=O)O)c2-c2ccc(OC)cc2)cc1 [mofezolac]	0 (no)
Cc1cnc(NC(=O)C2=C(O)c3ccccc3S(=O)(=O)N2C)s1 [meloxicam]	0 (no)

Here is the next item to consider.
# input Reported Nur77 min./max. activation reaches at least 0.6 for CCC(=O)NS(=O)(=O)c1ccc(-c2c(-c3ccccc3)noc2C)cc1 [parecoxib] ?
# output 0 (no)

====

Measured Nor1 activity 30μM (mean fold activation) by item
Target: NOR1 (Homo sapiens)
Construct: NOR1 (isoform alpha; uniprot entry: hNOR1–Q92570-1, residues 393–626); expressed in transfected cells; host or cells: HEK293T
Sequence (Q92570 393-626): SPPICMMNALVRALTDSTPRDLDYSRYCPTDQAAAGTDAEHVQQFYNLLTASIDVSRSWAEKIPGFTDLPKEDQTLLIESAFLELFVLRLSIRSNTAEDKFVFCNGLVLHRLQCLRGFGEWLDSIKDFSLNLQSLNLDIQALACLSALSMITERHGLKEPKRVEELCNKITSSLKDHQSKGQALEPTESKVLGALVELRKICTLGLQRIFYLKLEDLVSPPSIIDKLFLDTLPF
Assay: Gal4-NOR1 hybrid reporter gene assay in HEK293T cells
Format: cell-based
Conditions: 30 µM; primary screen; n ≥ 2; ^# not significant vs VP16 control
Lab book: enter the figure in fold, no units written.

Below: 5 molecules and their reported Nor1 activity 30μM (mean fold activation).
molecule	readout value
COc1ccc(-c2noc(CC(=O)O)c2-c2ccc(OC)cc2)cc1 [mofezolac]	0.78
CC(C(=O)O)c1ccc2c(c1)[nH]c1ccc(Cl)cc12 (stereo not drawn) [carprofen]	0.99
Cc1ccc(Nc2c(F)cccc2Cl)c(CC(=O)O)c1 [lumiracoxib]	0.79
CC(C(=O)O)c1ccc2c(c1)CC(=O)c1ccccc1S2 (stereo not drawn) [zaltoprofen]	0.84
CC(C(=O)O)c1cccc(C(=O)c2ccccc2)c1 (stereo not drawn) [ketoprofen]	0.96

# input Please look at this molecule and report its Nor1 activity 30μM (mean fold activation): CC(C(=O)O)c1ccc(C(=O)c2ccccc2)s1 (stereo not drawn) [tiaprofenic acid]
# output 1.42

# input Please look at this molecule and report its Nor1 activity 30μM (mean fold activation): COc1ccc2cc(CCC(C)=O)ccc2c1 [nabumeton]
# output 1.74

# input Please look at this molecule and report its Nor1 activity 30μM (mean fold activation): Cc1onc(-c2ccccc2)c1-c1ccc(S(N)(=O)=O)cc1 [valdecoxib]
# output 0.76

# input Please look at this molecule and report its Nor1 activity 30μM (mean fold activation): NC(=O)Cc1cccc(C(=O)c2ccccc2)c1N [nepafenac]
# output 1.23
